system: Taenia crassiceps; assay: Antiparasitic activity against Taenia crassiceps cysts WFU strain assessed as cysts mortality at 1.70 uM after 11 days by Trypan blue exclusion test; format: functional
Measured attribute: Activity (%)
One number for each entry, in %.

COC(=O)Nc1nc2cc(C(=O)N3CCCCC3)ccc2[nH]1 : 16.7
COC(=O)Nc1nc2cc(C(=O)OCc3ccc([N+](=O)[O-])cc3)ccc2[nH]1 : 26
CCC[S+]([O-])c1ccc2[nH]c(NC(=O)OC)nc2c1 (centres undefined) [ALBENDAZOLE OXIDE] : 35

Now examine the next entry.
(Q) Looking for the measured Activity of `COC(=O)Nc1nc2cc(Cl)ccc2[nH]1` , can you help?
(A) 8
